- TARGET_OR_SYSTEM: Muscarinic acetylcholine receptor M1 (Rattus norvegicus, UniProt P08482)
- Sequence (P08482 whole entry): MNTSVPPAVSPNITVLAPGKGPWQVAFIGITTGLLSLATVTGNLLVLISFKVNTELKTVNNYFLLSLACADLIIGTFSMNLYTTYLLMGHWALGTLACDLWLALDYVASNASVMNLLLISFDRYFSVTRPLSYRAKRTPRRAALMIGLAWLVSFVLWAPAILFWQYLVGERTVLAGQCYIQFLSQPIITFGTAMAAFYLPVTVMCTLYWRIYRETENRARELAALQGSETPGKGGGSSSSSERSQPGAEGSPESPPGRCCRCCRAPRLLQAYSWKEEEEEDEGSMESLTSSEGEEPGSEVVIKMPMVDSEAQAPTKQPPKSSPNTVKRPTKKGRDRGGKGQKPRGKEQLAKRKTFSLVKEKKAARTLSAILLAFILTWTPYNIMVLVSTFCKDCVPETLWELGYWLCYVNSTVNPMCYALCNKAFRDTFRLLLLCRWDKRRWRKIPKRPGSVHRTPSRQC
- EXPERIMENTAL_DETAILS: Antagonist activity at rat muscarinic M1 receptor expressed in CHO cells by calcium mobilization assay
pIC50: −log10 of the molar value.
ASSAY_ENDPOINT: pIC50

Example compounds with recorded pIC50:
{"COMPOUND_SMILES": "CCN1CCN(c2ccc(NC(=O)COCc3ccccc3)cc2Cl)CC1", "TARGET_OR_SYSTEM": "Muscarinic acetylcholine receptor M1 (Rattus norvegicus, UniProt P08482)", "pIC50": 4.73}
{"COMPOUND_SMILES": "CCCCOc1cccc(C(=O)Nc2ccc(N3CCN(CC)CC3)c(Cl)c2)c1", "TARGET_OR_SYSTEM": "Muscarinic acetylcholine receptor M1 (Rattus norvegicus, UniProt P08482)", "pIC50": 6.24}
{"COMPOUND_SMILES": "CCN1CCN(c2ccc(NC(=O)COc3ccccc3)cc2Cl)CC1", "TARGET_OR_SYSTEM": "Muscarinic acetylcholine receptor M1 (Rattus norvegicus, UniProt P08482)", "pIC50": 5.48}
{"COMPOUND_SMILES": "CCN1CCN(c2ccc(NC(=O)c3ccccc3)cc2Cl)CC1", "TARGET_OR_SYSTEM": "Muscarinic acetylcholine receptor M1 (Rattus norvegicus, UniProt P08482)", "pIC50": 5.30}
{"COMPOUND_SMILES": "CCN1CCN(c2ccc(NC(=O)CCC3CCCC3)cc2Cl)CC1", "TARGET_OR_SYSTEM": "Muscarinic acetylcholine receptor M1 (Rattus norvegicus, UniProt P08482)", "pIC50": 6.36}
{"COMPOUND_SMILES": "CCN1CCN(c2ccc(NC(=O)Cc3ccc(F)cc3)cc2Cl)CC1", "TARGET_OR_SYSTEM": "Muscarinic acetylcholine receptor M1 (Rattus norvegicus, UniProt P08482)", "pIC50": 5.25}
{"COMPOUND_SMILES": "CCN1CCN(c2ccc(NC(=O)C3CCCCC3)cc2Cl)CC1", "TARGET_OR_SYSTEM": "Muscarinic acetylcholine receptor M1 (Rattus norvegicus, UniProt P08482)", "pIC50": 5.34}
{"COMPOUND_SMILES": "CCN1CCN(c2ccc(NC(=O)[C@H]3C[C@@H]3c3ccccc3)cc2Cl)CC1", "TARGET_OR_SYSTEM": "Muscarinic acetylcholine receptor M1 (Rattus norvegicus, UniProt P08482)", "pIC50": 5.94}

[I] CCN1CCN(c2ccc(NC(=O)CCc3ccccc3)cc2Cl)CC1
[II] CCCCCC(=O)Nc1ccc(N2CCN(CC)CC2)c(Cl)c1
# query: argmin of pIC50 over I and II Please reply using the label of the selected record.
I
(I: 5.96, II: 6.31)

----------
- TARGET_OR_SYSTEM: Muscarinic acetylcholine receptor M4 (Rattus norvegicus)
- Sequence (P08485 whole entry): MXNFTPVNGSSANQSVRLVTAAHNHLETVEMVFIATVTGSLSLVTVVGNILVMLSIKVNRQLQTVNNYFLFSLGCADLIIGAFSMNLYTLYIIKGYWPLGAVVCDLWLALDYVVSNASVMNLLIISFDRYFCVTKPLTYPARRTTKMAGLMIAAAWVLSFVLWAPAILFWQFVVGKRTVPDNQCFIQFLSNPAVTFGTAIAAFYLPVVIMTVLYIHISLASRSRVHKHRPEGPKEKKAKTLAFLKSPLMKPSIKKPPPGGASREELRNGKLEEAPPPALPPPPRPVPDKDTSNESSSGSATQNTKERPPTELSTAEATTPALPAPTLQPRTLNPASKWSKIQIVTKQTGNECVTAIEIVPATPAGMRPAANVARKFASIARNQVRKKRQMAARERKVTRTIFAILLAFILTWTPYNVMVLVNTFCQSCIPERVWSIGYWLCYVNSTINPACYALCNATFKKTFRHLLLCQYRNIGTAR
- EXPERIMENTAL_DETAILS: Antagonist activity at rat muscarinic M4 receptor expressed in CHO cells by calcium mobilization assay
pIC50: −log10 of the molar value.
ASSAY_ENDPOINT: pIC50

{"COMPOUND_SMILES": "CCCCOc1cccc(C(=O)Nc2ccc(N3CCN(CC)CC3)c(Cl)c2)c1", "pIC50": 5.29}
{"COMPOUND_SMILES": "CCN1CCN(c2ccc(NC(=O)[C@H]3C[C@@H]3c3ccccc3)cc2Cl)CC1", "pIC50": 4.70}

[I] CCN1CCN(c2ccc(NC(=O)CCc3ccccc3)cc2Cl)CC1
[II] CCN1CCN(c2ccc(NC(=O)c3ccccc3)cc2Cl)CC1
[III] CCCCCC(=O)Nc1ccc(N2CCN(CC)CC2)c(Cl)c1
Rank the items in ascending order with respect to pIC50. Please list each label once, in the requested order.
II, I, III
(II: 4.18, I: 4.74, III: 5.10)

----------
- Species on record: Rattus norvegicus
- EXPERIMENTAL_DETAILS: Selectivity for rat muscarinic M1 receptor over rat muscarinic M5 receptor by calcium mobilization assay
ASSAY_ENDPOINT: Ratio IC50

[A] CCN1CCN(c2ccc(NC(=O)CCC3CCCC3)cc2Cl)CC1
[B] CCN1CCN(c2ccc(NC(=O)CCc3ccccc3)cc2Cl)CC1
[C] CN1CCN(CC(=O)N2c3ccccc3C(=O)Nc3cccnc32)CC1
rank_up(items): orders items by reported Ratio IC50 in ascending numerical order. Please list each label once, in the requested order.
A, B, C

----------
- TARGET_OR_SYSTEM: Muscarinic acetylcholine receptor M3 (Rattus norvegicus)
- Sequence (P08483 whole entry): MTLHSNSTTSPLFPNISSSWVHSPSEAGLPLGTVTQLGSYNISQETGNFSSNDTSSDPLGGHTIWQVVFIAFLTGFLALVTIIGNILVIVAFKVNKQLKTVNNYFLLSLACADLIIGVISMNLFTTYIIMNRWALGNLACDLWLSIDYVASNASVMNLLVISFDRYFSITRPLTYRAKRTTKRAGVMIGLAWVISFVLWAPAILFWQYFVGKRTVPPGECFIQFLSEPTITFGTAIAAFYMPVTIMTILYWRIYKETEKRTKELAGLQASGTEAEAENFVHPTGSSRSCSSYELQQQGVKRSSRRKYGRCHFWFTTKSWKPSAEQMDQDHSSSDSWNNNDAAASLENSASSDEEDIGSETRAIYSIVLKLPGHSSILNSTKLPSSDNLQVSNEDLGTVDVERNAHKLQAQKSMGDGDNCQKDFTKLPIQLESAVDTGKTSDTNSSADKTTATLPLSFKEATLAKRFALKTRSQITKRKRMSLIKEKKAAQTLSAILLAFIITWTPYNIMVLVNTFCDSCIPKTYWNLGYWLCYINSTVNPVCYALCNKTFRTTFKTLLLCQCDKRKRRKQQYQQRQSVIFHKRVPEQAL
ASSAY_ENDPOINT: pKi
On this scale, pKi is minus log10 of a concentration expressed in M (mol/L).

Name the recorded pKi for CCN1CCN(c2ccc(NC(=O)CCC3CCCC3)cc2Cl)CC1 .
7.13

----------
- Species: Rattus norvegicus
- EXPERIMENTAL_DETAILS: Selectivity for rat muscarinic M1 receptor over rat muscarinic M4 receptor by calcium mobilization assay
Reported values of Ratio IC50 for individual entries

Name the recorded Ratio IC50 for CCN1CCN(c2ccc(NC(=O)CCc3ccccc3)cc2Cl)CC1 .
16

Here is the next compound: CCN1CCN(c2ccc(NC(=O)Cc3ccc(F)cc3)cc2Cl)CC1
> 26

Here is the next compound: CCN1CCN(c2ccc(NC(=O)CCC3CCCC3)cc2Cl)CC1
> 340

Here is the next compound: CCN1CCN(c2ccc(NC(=O)COc3ccccc3)cc2Cl)CC1
> 45

Here is the next compound: CCN1CCN(c2ccc(NC(=O)C3CCCCC3)cc2Cl)CC1
> 32

Here is the next compound: CN1CCN(CC(=O)N2c3ccccc3C(=O)Nc3cccnc32)CC1
20

----------
- TARGET_OR_SYSTEM: Muscarinic acetylcholine receptor M3 (Rattus norvegicus)
- EXPERIMENTAL_DETAILS: Antagonist activity at rat muscarinic M3 receptor expressed in CHO cells by calcium mobilization assay
pIC50: −log10 of the molar value.
ASSAY_ENDPOINT: pIC50

Fill in the recorded pIC50 for this compound, with Muscarinic acetylcholine receptor M3 (Rattus norvegicus) as test system: CCN1CCN(c2ccc(NC(=O)CC(C)(C)C)cc2Cl)CC1
< 3.82

Here is the next compound: CCN1CCN(c2ccc(NC(=O)c3ccccc3)cc2Cl)CC1
< 3.82

----------
- Species on record: Rattus norvegicus
- EXPERIMENTAL_DETAILS: Selectivity for rat muscarinic M1 receptor over rat muscarinic M3 receptor by calcium mobilization assay
ASSAY_ENDPOINT: Ratio IC50

{"COMPOUND_SMILES": "CN1CCN(CC(=O)N2c3ccccc3C(=O)Nc3cccnc32)CC1", "Ratio IC50": 20}

[A] CCN1CCN(c2ccc(NC(=O)CCC3CCCC3)cc2Cl)CC1
[B] CCN1CCN(c2ccc(NC(=O)CCc3ccccc3)cc2Cl)CC1
Between these two entries, A and B , state which has the higher Ratio IC50. Please reply using the label of the selected record.
B

----------
- TARGET_OR_SYSTEM: Muscarinic acetylcholine receptor M5 (Rattus norvegicus, UniProt P08911)
- Sequence (P08911 whole entry): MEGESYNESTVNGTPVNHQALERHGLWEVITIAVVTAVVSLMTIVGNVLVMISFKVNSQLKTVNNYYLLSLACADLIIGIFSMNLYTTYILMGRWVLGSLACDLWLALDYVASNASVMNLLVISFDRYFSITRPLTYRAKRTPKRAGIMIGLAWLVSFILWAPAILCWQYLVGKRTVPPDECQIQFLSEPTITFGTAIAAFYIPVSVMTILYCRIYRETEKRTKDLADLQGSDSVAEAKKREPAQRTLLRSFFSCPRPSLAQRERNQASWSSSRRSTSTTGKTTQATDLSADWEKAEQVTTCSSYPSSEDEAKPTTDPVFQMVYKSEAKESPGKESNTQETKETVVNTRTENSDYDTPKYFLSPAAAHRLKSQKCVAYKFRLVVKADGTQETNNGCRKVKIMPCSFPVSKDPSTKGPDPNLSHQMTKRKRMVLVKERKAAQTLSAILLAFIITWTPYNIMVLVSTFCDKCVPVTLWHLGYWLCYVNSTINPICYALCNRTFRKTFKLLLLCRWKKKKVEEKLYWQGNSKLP
- EXPERIMENTAL_DETAILS: Antagonist activity at rat muscarinic M5 receptor expressed in CHO cells by calcium mobilization assay
pIC50: −log10 of the molar value.
Reported values of pIC50 for individual entries

{"COMPOUND_SMILES": "CCN1CCN(c2ccc(NC(=O)C3CCCCC3)cc2Cl)CC1", "pIC50": "< 3.82"}
{"COMPOUND_SMILES": "CCN1CCN(c2ccc(NC(=O)COc3ccccc3)cc2Cl)CC1", "pIC50": "< 3.82"}
{"COMPOUND_SMILES": "CCN1CCN(c2ccc(NC(=O)CCC3CCCC3)cc2Cl)CC1", "pIC50": 5.96}
{"COMPOUND_SMILES": "CCCCCC(=O)Nc1ccc(N2CCN(CC)CC2)c(Cl)c1", "pIC50": "< 3.82"}
{"COMPOUND_SMILES": "CCCC(=O)Nc1ccc(N2CCN(CC)CC2)c(Cl)c1", "pIC50": "< 3.82"}
{"COMPOUND_SMILES": "CCN1CCN(c2ccc(NC(=O)c3ccccc3)cc2Cl)CC1", "pIC50": "< 3.82"}
{"COMPOUND_SMILES": "CCN1CCN(c2ccc(NC(=O)CC(C)(C)C)cc2Cl)CC1", "pIC50": "< 3.82"}
{"COMPOUND_SMILES": "CCN1CCN(c2ccc(NC(=O)[C@H]3C[C@@H]3c3ccccc3)cc2Cl)CC1", "pIC50": 4.89}
{"COMPOUND_SMILES": "CCN1CCN(c2ccc(NC(=O)CCc3ccccc3)cc2Cl)CC1", "pIC50": 5.12}
{"COMPOUND_SMILES": "CCN1CCN(c2ccc(NC(=O)COCc3ccccc3)cc2Cl)CC1", "pIC50": "< 3.82"}

Now for another entry.
Name the recorded pIC50 for CCN1CCN(c2ccc(NC(=O)Cc3ccc(F)cc3)cc2Cl)CC1 .
< 3.82

Attribution: ChEMBL document CHEMBL1143155
